Recorded pEC50 by entry
- system: KiSS-1 receptor (Homo sapiens)
- Sequence (Q969F8 whole entry): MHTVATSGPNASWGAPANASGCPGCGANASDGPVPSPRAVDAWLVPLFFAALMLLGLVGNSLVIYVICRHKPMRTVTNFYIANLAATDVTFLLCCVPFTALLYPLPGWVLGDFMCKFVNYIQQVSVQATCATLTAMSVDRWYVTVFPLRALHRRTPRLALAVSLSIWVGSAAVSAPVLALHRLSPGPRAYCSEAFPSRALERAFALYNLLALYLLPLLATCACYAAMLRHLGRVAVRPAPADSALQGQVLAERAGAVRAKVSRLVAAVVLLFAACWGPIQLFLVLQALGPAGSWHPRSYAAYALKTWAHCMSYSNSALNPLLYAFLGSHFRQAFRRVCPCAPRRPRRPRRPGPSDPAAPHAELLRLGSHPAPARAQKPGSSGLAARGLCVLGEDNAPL
- testName: Agonist activity at human KISS1R expressed in CHO/dhfr cells assessed as increase in intracellular Ca2+ levels measured for 180 secs by Fluo 3-AM dye based FLIPR assay
pEC50: −log10 of the molar value. Where a SMILES comes first, the peptide text is derived from it. [ ]: non-standard residue; d: D form. Phe(3-F) = N[C@@H](Cc1cccc(F)c1)C(=O)O; Arg(Me) = CNC(=N)NCCC[C@H](N)C(=O)O; azaGly = NNC(=O)O
experimentalEndpoint: pEC50

INSERT INTO measurements (compound, system, experimentalendpoint, experimentalvalue) VALUES
  ('CNC(=N)NCCC[C@H](NC(=O)[C@H](CC(C)C)NC(=O)NNC(=O)[C@H](Cc1cccc(F)c1)NC(=O)[C@@H](NC(=O)[C@H](CC(N)=O)NC(=O)CNC(=O)[C@@H](Cc1ccc(O)cc1)NC(C)=O)[C@@H](C)O)C(=O)N[C@@H](Cc1c[nH]c2ccccc12)C(N)=O (Ac-[dY]GNT[Phe(3-F)][azaGly]L[Arg(Me)]W-NH2)', 'KiSS-1 receptor (Homo sapiens)', 'pEC50', 8.96),
  ('CNC(=N)NCCC[C@H](NC(=O)[C@H](CC(C)C)NC(=O)NNC(=O)[C@H](Cc1cccc(F)c1)NC(=O)[C@@H](NC(=O)[C@H](CC(N)=O)NC(=O)[C@H](CCCCN)NC(=O)[C@@H](Cc1ccc(O)cc1)NC(C)=O)[C@@H](C)O)C(=O)N[C@@H](Cc1c[nH]c2ccccc12)C(N)=O (Ac-[dY]KNT[Phe(3-F)][azaGly]L[Arg(Me)]W-NH2)', 'KiSS-1 receptor (Homo sapiens)', 'pEC50', 9.37),
  ('CNC(=N)NCCC[C@H](NC(=O)[C@H](CC(C)C)NC(=O)NNC(=O)[C@H](Cc1ccccc1)NC(=O)[C@@H](NC(=O)[C@H](CC(N)=O)NC(=O)[C@H](C)NC(=O)[C@@H](Cc1ccc(O)cc1)NC(C)=O)[C@@H](C)O)C(=O)N[C@@H](Cc1c[nH]c2ccccc12)C(N)=O', 'KiSS-1 receptor (Homo sapiens)', 'pEC50', 8.92);
